System: EKVX NSCLC
Assay: NCI-60 one-dose screen, 48 h
Conditions: 10 µM unless noted
About 83,000 compounds went through this panel and 20% of them were active in at least one assay; those are over-represented in the sample as a whole. Activity calls are given as the source filed them. The calls were made as follows: active = growth percent below 10; inactive = the rest.
Outcome codes: true (1) (active), false (0) (inactive)

[
  {
    "SMILES_NOTATION": "O=C(/C=C/c1cc(CN2CCOCC2)c(O)c2ncccc12)c1cc(CN2CCOCC2)c(O)c2ncccc12",
    "CATEGORY": "false (0)"
  },
  {
    "SMILES_NOTATION": "COc1cc2c(cc1O)CC[C@@H]1[C@@H]2CC[C@]2(C)[C@@H](NCCN(C)C)CC[C@@H]12",
    "CATEGORY": "true (1)"
  },
  {
    "SMILES_NOTATION": "CC1(C)CC[C@]2(C(=O)Nc3ccccn3)CC[C@]3(C)C(=CC[C@@H]4[C@@]5(C)C/C(=C/c6cccnc6)C(=O)C(C)(C)[C@@H]5CC[C@]43C)[C@H]2C1",
    "CATEGORY": "false (0)"
  },
  {
    "SMILES_NOTATION": "C#CCOc1ccc2ncnc(N3CCN(C(=O)CCl)CC3)c2c1",
    "CATEGORY": "false (0)"
  },
  {
    "SMILES_NOTATION": "Cc1ccc(NC(=O)/C=C/c2ccccc2)c(C(N)=O)c1",
    "CATEGORY": "false (0)"
  },
  {
    "SMILES_NOTATION": "C#CC(F)(F)[C@]1(O)CC[C@H]2[C@@H]3CCC4=CC(=O)CCC4=C3[C@@H](c3ccc(C(C)=O)cc3)C[C@@]21C",
    "CATEGORY": "true (1)"
  },
  {
    "SMILES_NOTATION": "Cn1cc(-c2nonc2-c2cn(C)c3ccc(F)cc23)c2ccccc21",
    "CATEGORY": "false (0)"
  },
  {
    "SMILES_NOTATION": "COc1cc(-c2nc(C(=O)NCC(=O)NO)nn2-c2ccc(Cl)cc2)cc(OC)c1OC",
    "CATEGORY": "false (0)"
  }
]

----------
Tested on: OVCAR-5 ovarian
Assay: NCI-60 one-dose screen, 48 h
Details: 10 µM unless noted
The panel holds about 83,000 compounds, 20% with a hit somewhere; the sample as a whole holds those more often. Calls of active or inactive are those of the source. How the source made its calls: active means growth percent below 10; inactive means the rest.
Outcome codes: true (1) for active, false (0) for inactive

[
  {
    "MOLECULE": "O=c1oc2c(C(F)(F)F)cccc2cc1-c1csc(Nc2ccc(OCCF)cc2)n1",
    "SYSTEM_NAME": "OVCAR-5 ovarian",
    "CATEGORY": "false (0)"
  },
  {
    "MOLECULE": "CN1C(=O)C2(SCC(C(=O)NCc3ccccc3)N2C(=O)C2CCCCC2)c2ccccc21 (stereo not given)",
    "SYSTEM_NAME": "OVCAR-5 ovarian",
    "CATEGORY": "false (0)"
  },
  {
    "MOLECULE": "COc1cc(/C=C/C(=O)c2c(C)oc3nc[nH]c(=O)c23)cc(OC)c1OC",
    "SYSTEM_NAME": "OVCAR-5 ovarian",
    "CATEGORY": "false (0)"
  },
  {
    "MOLECULE": "N=C(N)c1ccc(-c2ccc(-c3ccc4ccccc4c3)s2)s1",
    "SYSTEM_NAME": "OVCAR-5 ovarian",
    "CATEGORY": "true (1)"
  },
  {
    "MOLECULE": "Cc1ccc(NC(=O)C2CCC(CN3CCN(C)CC3)CC2)cc1Nc1nccc(-c2cccnc2)n1 (stereo not given)",
    "SYSTEM_NAME": "OVCAR-5 ovarian",
    "CATEGORY": "false (0)"
  },
  {
    "MOLECULE": "C=C(C)C(=O)Nc1ccc(NC(C)C)cc1",
    "SYSTEM_NAME": "OVCAR-5 ovarian",
    "CATEGORY": "false (0)"
  },
  {
    "MOLECULE": "O=C1c2cccc3cccc(c23)C(=O)N1CCCCCN1CCN(CCCCCOc2ccc(-c3nc4ccc(N5CCOCC5)cc4[nH]3)cc2)CC1",
    "SYSTEM_NAME": "OVCAR-5 ovarian",
    "CATEGORY": "false (0)"
  },
  {
    "MOLECULE": "Cn1ccnc1C(=O)/C=C/c1ccccc1",
    "SYSTEM_NAME": "OVCAR-5 ovarian",
    "CATEGORY": "false (0)"
  },
  {
    "MOLECULE": "COc1ccc(/C=C/c2nc3ccccc3nc2/C=C/c2ccc(OC)cc2)cc1",
    "SYSTEM_NAME": "OVCAR-5 ovarian",
    "CATEGORY": "false (0)"
  },
  {
    "MOLECULE": "COc1cc2c(cc1-c1c(C)noc1C)ncc1nc(C3CCCC3)n([C@H](C)COC(F)F)c12",
    "SYSTEM_NAME": "OVCAR-5 ovarian",
    "CATEGORY": "false (0)"
  }
]

----------
Tested on: SK-OV-3 ovarian
Assay: NCI-60 one-dose screen, 48 h (100 = growth as untreated, 0 = no growth, -100 = all killed)
Conditions: 10 µM unless noted
About 83,000 compounds went through this panel and 20% of them were active in at least one assay; those are over-represented in the sample as a whole.

[
  {
    "SMILES_NOTATION": "O=S(=O)(Nc1ccc(I)cc1F)c1ccc(-c2cnc(C3CC3)o2)cc1",
    "UNIT_DESCRIPTOR": "%",
    "growth": 71.5
  },
  {
    "SMILES_NOTATION": "C#CC(F)(F)[C@]1(O)CC[C@H]2[C@@H]3CCC4=CC(=O)CCC4=C3[C@@H](c3ccc(C4CC4)cc3)C[C@@]21C",
    "UNIT_DESCRIPTOR": "%",
    "growth": -79.4
  },
  {
    "SMILES_NOTATION": "CC1=C/C(=C(\\c2ccc(N(C)C)cc2)c2ccc([N+](C)(C)C)cc2)C=CC1=[N+](C)C",
    "UNIT_DESCRIPTOR": "%",
    "growth": 94
  },
  {
    "SMILES_NOTATION": "COc1ccc2[nH]cc(-c3noc(C(=O)c4cn(C)c5ccc(F)cc45)n3)c2c1",
    "UNIT_DESCRIPTOR": "%",
    "growth": 87.3
  },
  {
    "SMILES_NOTATION": "COc1cc2c(cc1O)CC[C@@H]1[C@@H]2CC[C@]2(C)[C@@H](OCCCN(C)C)CC[C@@H]12",
    "UNIT_DESCRIPTOR": "%",
    "growth": -59.1
  }
]

----------
System: SK-MEL-2 melanoma
Assay: NCI-60 one-dose screen, 48 h
Conditions: 10 µM unless noted
This is part of a sample that, as a whole, favours compounds with a hit. Of some 83,000 tested, about 20% had one in any assay. The source made the active and inactive calls. How the source made its calls: active means growth percent below 10; inactive means the rest.
Outcome codes: active, inactive

[
  {
    "SMILES_NOTATION": "O=c1ccccc(-c2ccc(Br)cc2)c1O",
    "SYSTEM_NAME": "SK-MEL-2 melanoma",
    "CATEGORY": "inactive"
  },
  {
    "SMILES_NOTATION": "CC(C)(O)c1cn(CCCCN2C(=O)C(=O)c3ccccc32)nn1",
    "SYSTEM_NAME": "SK-MEL-2 melanoma",
    "CATEGORY": "inactive"
  },
  {
    "SMILES_NOTATION": "CCN=C1C=CC(=C(c2ccc(N)cc2)c2ccc(N(CC)CC)c(C)c2)C=C1",
    "SYSTEM_NAME": "SK-MEL-2 melanoma",
    "CATEGORY": "active"
  },
  {
    "SMILES_NOTATION": "Cn1cc(-c2nonc2-c2c[nH]c3ccccc23)c2cccnc21",
    "SYSTEM_NAME": "SK-MEL-2 melanoma",
    "CATEGORY": "active"
  },
  {
    "SMILES_NOTATION": "CCOc1ccc(C(C)=O)cc1NC(=O)c1cccc(-c2nnn(CC)n2)c1",
    "SYSTEM_NAME": "SK-MEL-2 melanoma",
    "CATEGORY": "active"
  },
  {
    "SMILES_NOTATION": "O=[N+]([O-])c1ccccc1/C=N\\NC(=S)N/N=C/c1ccccc1[N+](=O)[O-]",
    "SYSTEM_NAME": "SK-MEL-2 melanoma",
    "CATEGORY": "inactive"
  }
]

This collection of values is drawn from PubChem BioAssay (NCI).
